Ref: patent US11415579B2

This listing pairs compounds with measured Rate constant with Cdk2 F80C.
target: Cdk2(C177A, F80C) (Homo sapiens, UniProt P24941, C177A/F80C); construct: poly-histidine; made in house; host or cells: E. coli; experiment: Kinetic thiol consumption assay with Cdk2 mutant F80C, incl. kobs versus concentration (Kd, k2); format: binding; conditions: Protein: Cdk2; cysteine position F80C; additional mutation C177A; in h^-1
Would you mind answering with just the numeric figure?

Answered examples (3):
Q: Please look up its Rate constant with Cdk2 F80C: C=CC(=O)N1CCCC(C(=O)OCC)C1 (stereo not drawn) [EL-1187]
Ans: 0.005875

Q: Please look up its Rate constant with Cdk2 F80C: C=CC(=O)N(CC(=O)NC1CC1)C1CC1 [CA-031]
Ans: 0.0005005

Q: Please look up its Rate constant with Cdk2 F80C: C=CC(=O)N1CCCc2sccc2C1 [CA-034]
Ans: 0.02361

***
Q: Please look up its Rate constant with Cdk2 F80C: C=CC(=O)N1CC2CCCCCCC21 (stereo not drawn) [CA-098]
Ans: 0.01519

Q: Please look up its Rate constant with Cdk2 F80C: C=CC(=O)N1CCN(S(C)(=O)=O)CC1c1ccccc1 (stereo not drawn) [EL-1160]
Ans: 0.01348

Q: Please look up its Rate constant with Cdk2 F80C: O=C(CCl)NCCc1c[nH]c2ccccc12 [EN005]
Ans: 0.002202
